Listing: 100 nM huCB1-GFP-SMALP binding (normalized to 10D10N35Y) of selected binders
- testSystem: T1, GFP-fused huCB1-SMALP (human CB1 in styrene maleic acid lipoparticles) (human, UniProt P21554 1-472)
- T1 construct: Prepared as in Luna V. et al. 2018; also called huCB1-GFP-SMALP; wtCB1-SMALP; not shown: GFP fusion
- T1 sequence (P21554 whole entry, the tested form may be a part): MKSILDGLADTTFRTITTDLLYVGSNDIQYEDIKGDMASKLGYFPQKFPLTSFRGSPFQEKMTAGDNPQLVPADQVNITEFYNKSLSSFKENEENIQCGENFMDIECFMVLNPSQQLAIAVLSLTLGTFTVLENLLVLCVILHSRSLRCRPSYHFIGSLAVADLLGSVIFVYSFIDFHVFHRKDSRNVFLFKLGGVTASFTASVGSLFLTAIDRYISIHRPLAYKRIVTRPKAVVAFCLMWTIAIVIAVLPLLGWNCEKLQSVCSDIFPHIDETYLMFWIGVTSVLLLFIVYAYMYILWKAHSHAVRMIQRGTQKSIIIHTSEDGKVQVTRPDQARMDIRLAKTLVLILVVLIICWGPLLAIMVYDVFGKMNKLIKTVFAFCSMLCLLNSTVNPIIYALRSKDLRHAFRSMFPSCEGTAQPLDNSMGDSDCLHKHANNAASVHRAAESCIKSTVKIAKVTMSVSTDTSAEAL
- measurementNotes: flow cytometry, yeast-displayed IgG, GFP MFI

binder: LIBC527827-1 (antibody, V domains shown, also called LIBC527827-1 + VK1 germline fix(es)) VH: QVQLQESGPGLVKPSQTLSLTCTVSGGSIRRGGDYWGWIRQHPGKGLEWIGHVYQSGQTAYNPKFENRATISVKTYKNQFSLKLSSVTAADTAVYYCARNYDTLTGHSYYYYGMDVWGQGTTVTVSS VL: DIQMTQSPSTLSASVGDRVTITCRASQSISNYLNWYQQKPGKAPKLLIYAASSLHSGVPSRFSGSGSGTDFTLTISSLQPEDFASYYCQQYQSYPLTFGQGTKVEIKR
measuredValue: 4.99 fold

Attention now turns to another entry.
The binder listed as LIBC528141-1 (antibody, V domains shown) VH: QVQLQESGPGLVKPSQTLSLTCTVSGGSIRRGGDYWSWIRQHPGKGLEWIGHVYQTGSTKYNPRFKGRATISVNTYKNQFSLKLSSVTAADTAVYYCARDYDILTGYSYYYYGMDVWGQGTTVTVSS VL: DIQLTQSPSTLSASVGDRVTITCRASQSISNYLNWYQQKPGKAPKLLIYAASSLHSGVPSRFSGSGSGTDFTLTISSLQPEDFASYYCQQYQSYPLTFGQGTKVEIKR shows 100 nM huCB1-GFP-SMALP binding (normalized to 10D10N35Y) equal to 8.31 fold
